Test target: T1, His-tagged CD73 extracellular domain protein (hCD73 ECD-His) (human, UniProt P21589 27-547)
T1 construct: Expressed in CHO cells from pTT5-hCD73 ECD-His6, purified on nickel column; also called hCD73 ECD-His6; human CD73 ECD
T1 sequence: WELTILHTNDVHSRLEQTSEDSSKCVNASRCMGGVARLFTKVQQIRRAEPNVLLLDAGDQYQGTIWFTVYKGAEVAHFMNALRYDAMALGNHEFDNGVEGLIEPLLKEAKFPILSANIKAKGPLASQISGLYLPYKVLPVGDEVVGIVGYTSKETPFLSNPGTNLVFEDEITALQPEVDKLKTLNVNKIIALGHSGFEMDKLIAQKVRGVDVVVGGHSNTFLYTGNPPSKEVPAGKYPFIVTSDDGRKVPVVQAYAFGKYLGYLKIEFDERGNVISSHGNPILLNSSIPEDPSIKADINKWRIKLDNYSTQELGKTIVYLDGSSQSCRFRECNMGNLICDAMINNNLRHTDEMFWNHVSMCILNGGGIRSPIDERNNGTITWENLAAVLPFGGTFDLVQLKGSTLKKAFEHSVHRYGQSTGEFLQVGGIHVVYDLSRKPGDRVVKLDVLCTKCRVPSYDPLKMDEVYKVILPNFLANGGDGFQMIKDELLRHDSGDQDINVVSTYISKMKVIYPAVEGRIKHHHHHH
Assay protocol: Octet BLI, antibody on AHC sensor, antigen 50-200 nM, 1:1 fit
kon: recorded values
Measurement name: kon (M⁻¹ s⁻¹)

* mab065xhIgG1TM (clone 125A4E10), mouse-human chimeric anti-CD73 antibody (antibody, V domains shown, also called mAb065 chimeric antibody) VH: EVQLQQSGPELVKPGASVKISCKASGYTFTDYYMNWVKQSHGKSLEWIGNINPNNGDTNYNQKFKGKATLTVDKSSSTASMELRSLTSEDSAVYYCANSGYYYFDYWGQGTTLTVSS VL: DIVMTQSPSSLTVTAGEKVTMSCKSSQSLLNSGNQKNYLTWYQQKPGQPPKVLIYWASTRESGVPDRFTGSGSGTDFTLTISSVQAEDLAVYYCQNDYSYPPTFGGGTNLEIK | 434000
* mab020xhIgG1TM (clone 24D6B4), mouse-human chimeric anti-CD73 antibody (antibody, V domains shown, also called mAb020 chimeric antibody) VH: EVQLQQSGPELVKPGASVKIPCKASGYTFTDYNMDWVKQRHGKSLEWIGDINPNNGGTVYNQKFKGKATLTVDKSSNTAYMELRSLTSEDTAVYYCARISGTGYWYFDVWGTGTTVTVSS VL: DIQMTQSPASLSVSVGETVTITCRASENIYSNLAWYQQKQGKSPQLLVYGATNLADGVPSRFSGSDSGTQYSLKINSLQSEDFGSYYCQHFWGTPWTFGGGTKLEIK | 255000
* mab032xhIgG1TM (clone 56F12H8), mouse-human chimeric anti-CD73 antibody (antibody, V domains shown, also called mAb032 chimeric antibody) VH: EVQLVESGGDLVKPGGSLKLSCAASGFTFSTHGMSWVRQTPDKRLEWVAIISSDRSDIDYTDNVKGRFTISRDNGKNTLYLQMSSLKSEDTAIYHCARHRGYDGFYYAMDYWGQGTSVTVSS VL: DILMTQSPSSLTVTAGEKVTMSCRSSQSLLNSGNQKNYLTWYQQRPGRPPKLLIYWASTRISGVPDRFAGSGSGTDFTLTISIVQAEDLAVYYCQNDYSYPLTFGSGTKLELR | 70000
* mab041xhIgG1TM (clone 71E10B3), mouse-human chimeric anti-CD73 antibody (antibody, V domains shown, also called mAb041 chimeric antibody) VH: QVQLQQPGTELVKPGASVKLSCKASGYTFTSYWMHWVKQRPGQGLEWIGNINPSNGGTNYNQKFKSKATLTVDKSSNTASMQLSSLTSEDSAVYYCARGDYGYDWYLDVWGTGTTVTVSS VL: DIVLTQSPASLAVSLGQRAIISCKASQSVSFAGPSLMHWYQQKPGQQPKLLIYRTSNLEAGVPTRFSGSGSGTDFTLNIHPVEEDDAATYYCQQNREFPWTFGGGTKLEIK | 148000
* mab044xhIgG1TM (clone 80H7D6), mouse-human chimeric anti-CD73 antibody (antibody, V domains shown, also called mAb044 chimeric antibody) VH: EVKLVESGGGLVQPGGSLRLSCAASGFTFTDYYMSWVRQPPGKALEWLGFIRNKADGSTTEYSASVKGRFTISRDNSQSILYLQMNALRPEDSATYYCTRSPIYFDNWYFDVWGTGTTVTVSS VL: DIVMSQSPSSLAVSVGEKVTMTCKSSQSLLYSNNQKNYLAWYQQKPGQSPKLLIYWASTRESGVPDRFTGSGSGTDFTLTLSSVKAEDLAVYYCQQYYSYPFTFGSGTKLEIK | 383000
* mab030xhIgG1TM (clone 42A5A7), mouse-human chimeric anti-CD73 antibody (antibody, V domains shown, also called mAb030 chimeric antibody) VH: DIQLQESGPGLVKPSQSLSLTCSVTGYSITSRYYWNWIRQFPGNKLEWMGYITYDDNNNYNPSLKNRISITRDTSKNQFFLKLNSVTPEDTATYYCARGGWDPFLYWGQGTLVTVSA VL: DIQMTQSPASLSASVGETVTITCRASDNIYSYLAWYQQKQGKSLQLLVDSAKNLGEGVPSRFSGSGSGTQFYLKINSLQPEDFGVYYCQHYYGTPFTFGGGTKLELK | 302000
* mab036xhIgG1TM (clone 66H6C12), mouse-human chimeric anti-CD73 antibody (antibody, V domains shown, also called mAb036 chimeric antibody) VH: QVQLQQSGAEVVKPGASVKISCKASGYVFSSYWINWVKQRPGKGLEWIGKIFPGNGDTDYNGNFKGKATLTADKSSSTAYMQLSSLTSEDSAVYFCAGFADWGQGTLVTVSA VL: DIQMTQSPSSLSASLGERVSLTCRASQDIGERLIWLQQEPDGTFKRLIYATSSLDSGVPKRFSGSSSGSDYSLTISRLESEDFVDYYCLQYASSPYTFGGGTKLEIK | 301000
* mab038xhIgG1TM (clone 69C9E12), mouse-human chimeric anti-CD73 antibody (antibody, V domains shown, also called mAb038 chimeric antibody) VH: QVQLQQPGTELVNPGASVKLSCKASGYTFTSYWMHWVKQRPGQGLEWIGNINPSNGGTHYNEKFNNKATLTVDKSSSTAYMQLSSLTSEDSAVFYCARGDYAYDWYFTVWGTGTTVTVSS VL: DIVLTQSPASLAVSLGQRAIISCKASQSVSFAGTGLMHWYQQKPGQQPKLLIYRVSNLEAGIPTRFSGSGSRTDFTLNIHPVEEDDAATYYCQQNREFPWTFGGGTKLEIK | 240000
* mab042xhIgG1TM (clone 77B9A3), mouse-human chimeric anti-CD73 antibody (antibody, V domains shown, also called mAb042 chimeric antibody) VH: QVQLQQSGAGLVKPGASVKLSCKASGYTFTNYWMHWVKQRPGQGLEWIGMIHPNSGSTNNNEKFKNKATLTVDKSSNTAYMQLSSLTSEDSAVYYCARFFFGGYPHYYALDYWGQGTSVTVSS VL: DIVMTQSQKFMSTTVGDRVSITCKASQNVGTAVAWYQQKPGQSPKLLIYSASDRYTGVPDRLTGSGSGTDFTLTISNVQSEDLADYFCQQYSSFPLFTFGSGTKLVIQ | 461000
* mab034xhIgG1TM (clone 60G1C8), mouse-human chimeric anti-CD73 antibody (antibody, V domains shown, also called mAb034 chimeric antibody) VH: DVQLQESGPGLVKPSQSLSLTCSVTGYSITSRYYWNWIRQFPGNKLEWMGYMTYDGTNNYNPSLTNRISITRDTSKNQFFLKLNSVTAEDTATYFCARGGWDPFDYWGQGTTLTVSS VL: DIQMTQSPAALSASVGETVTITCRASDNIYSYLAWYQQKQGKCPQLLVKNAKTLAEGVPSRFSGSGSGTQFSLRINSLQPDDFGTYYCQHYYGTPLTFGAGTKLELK | 409000
